Tested on: SK-MEL-5 melanoma
Assay: NCI tumour cell line growth inhibition, 48 h
YES means recorded TGI is 7 µM or above; NO means it is below 7 µM.

Compound	Group
c1ccc(CCc2cccnc2)nc1	YES
CCOC(=O)CNC(=O)C(CSC(=O)N(O)c1ccc(Cl)cc1)NC(=O)CCC(N)C(=O)OCC (stereo not drawn)	YES
CCOC(=O)C(C(=O)OCC)=C1NC2(c3ccccc3Nc3ccccc32)C(C#N)S1 (stereo not drawn)	YES
Cc1nc2ccc(C(F)(F)F)cc2nc1NCc1ccc(Cl)c(Cl)c1	YES
CC(=O)NC1C(OCc2ccccc2)OC(CO)C(O)C1OC(C)C(=O)NC(C)C(=O)NC(CCC(=O)NCCCCNc1c2ccccc2nc2cccc([N+](=O)[O-])c12)C(N)=O (stereo not drawn)	NO
CC(=O)OCC(=O)O[C@@H]1[C@H]2[C@@H](OC(=O)c3ccccc3)[C@@H](C)C[C@]2(O)[C@H](OC(C)=O)[C@@]2(C)C(OC(C)=O)[C@]1(OC(C)=O)C[C@H]1C(=O)C(C)(C)C[C@@H]12 (stereo partly drawn)	YES
O=c1[nH]c(=S)nc2nc3c4ccc[nH]c4c4ccccc4c3nc12	YES
O=C(CCC1C(=O)NC(=S)NC1=O)c1ccc2ccccc2c1	YES
C=C(C)C1Cc2c(c3ccccc3n(C)c2=O)O1 (stereo not drawn)	YES
C#CCNC(=O)[C@H](CC)[C@H]1CC[C@H](C)[C@H]([C@@H](C)[C@H](O)[C@H](C)C(=O)[C@H](CC)C2O[C@]3(C=CC(=O)[C@]4(CC[C@@](C)([C@H]5CC[C@](O)(CC)[C@H](C)O5)O4)O3)[C@H](C)C[C@@H]2C)O1 (stereo partly drawn)	NO
NC(=O)NNC(=O)NC12CC3CC(CC(C3)C1)C2	YES
Cc1cccc2c3c(sc12)C(c1ccc(Cl)cc1)C(C#N)=C(N)O3 (stereo not drawn)	NO
COc1ccc(-c2nc(/C=C3\SC(=NCc4ccccc4)NC3=O)c3ccccn23)cc1	NO
CCOC(=O)/C(C#N)=C(O)/C(=C\c1ccc(Br)cc1)NC(=O)c1ccccc1	YES
O=[N+]([O-])c1ccc(C(=S)Nc2ccccc2)o1	YES
O=C(c1ccccc1)N(C(=O)c1ccccc1)c1nc(SCc2ccccc2)ns1	YES
CCCCCCNC(=O)Oc1ccc(/C(=C(\C)c2ccc(Cl)cc2)c2ccc(OCCN3CCCCC3)cc2)cc1	NO
OCCNC1c2cc(Cl)ccc2-c2c(Cl)cc(Cl)cc21 (stereo not drawn)	YES
